B1: tRNA (parent)
chain: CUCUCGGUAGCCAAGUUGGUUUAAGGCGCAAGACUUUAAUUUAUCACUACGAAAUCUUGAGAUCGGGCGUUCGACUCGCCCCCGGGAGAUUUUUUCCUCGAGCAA

Variants of: B1
Test: nonsense suppression (GFP-seq) (ratio to wild type); higher = more function; SUP4oc tRNA, yeast GFP reporter sort-seq
Variants at the floor of the assay were thinned out.
measurement name: nonsense suppression

mutation	measurement name	experimental result
A14C U71A	nonsense suppression	≤ 0.026
C56G U58C G66C	nonsense suppression	≤ 0.026
A62U U71G	nonsense suppression	≤ 0.026
C5U A31G U71C	nonsense suppression	≤ 0.026
G7C G19C G66U G69C	nonsense suppression	≤ 0.026
U4G G32A A33G	nonsense suppression	≤ 0.026
A24C G67C G84U	nonsense suppression	≤ 0.026
C27A U35C G66C G88C	nonsense suppression	≤ 0.026
U22A A87G	nonsense suppression	0.501
U17G A54U G61C	nonsense suppression	0.162
G28U A33C U63A U71G	nonsense suppression	≤ 0.026
C34U A54C C56G G73A G88C	nonsense suppression	≤ 0.026
U4C G61A	nonsense suppression	1.25
C81A A89C	nonsense suppression	≤ 0.026
C83U G84U	nonsense suppression	0.027

// data source = the RNAGym collection of RNA variant scans (doi:10.1101/gad.245936.114)
